Assay Protocol: Enzyme stability in human liver microsomes
Format: in vitro ADME
Assay Context: pH 7.4; 0,5 mg/mL pooled human liver microsomes; 10 µM compound; 37°C; pH=7,4
Measurement Kind: microsomal CLint at 10 µM (µL/min/mg)
Provide the reading as a plain figure in µL/min/mg.

### Prompt Need microsomal CLint at 10 µM of `O=C(c1ccnc2ccc(-c3ccc(-c4cn[nH]c4)cc3)cc12)N1CCCCC1` , thanks.
### Response 37

### Prompt Need microsomal CLint at 10 µM of `Cn1cc(-c2ccc(-c3cncc4ncc(C(=O)N5CCCC5)cc34)cc2)cn1` , thanks.
### Response 27.8

### Prompt Need microsomal CLint at 10 µM of `Cn1cc(-c2ccc(-c3ccnc4ccc(N5CCCC5=O)cc34)cc2)cn1` , thanks.
### Response 22.6

### Prompt Need microsomal CLint at 10 µM of `CN(C)c1ccc(-c2cnc3[nH]cc(C(=O)c4ccncc4)c3c2)cc1O` , thanks.
### Response 21.6

### Prompt Need microsomal CLint at 10 µM of `Cn1cc(-c2ccc(-c3cncc4ncc(N5CCCC5=O)cc34)cc2)cn1` , thanks.
### Response 10.7

### Prompt Need microsomal CLint at 10 µM of `COCCNC(=O)c1ccc2nccc(-c3ccc(-c4cnn(C)c4)cc3)c2c1` , thanks.
### Response 11.8

### Prompt Need microsomal CLint at 10 µM of `Cn1cc(-c2ccc(-c3cncc4ncc(N5CC(C(=O)N6CCOCC6)C5)cc34)cc2)cn1` , thanks.
### Response 8.8

### Prompt Need microsomal CLint at 10 µM of `COc1cccc(C(=O)c2c[nH]c3ncc(-c4ccc(N(C)C)cc4)cc23)c1` , thanks.
### Response 24.2

### Prompt Need microsomal CLint at 10 µM of `Cn1cc(-c2ccc(-c3cncc4ncc(C(=O)N5CCC5)cc34)cc2)cn1` , thanks.
### Response 13.6

### Prompt Need microsomal CLint at 10 µM of `CN(C)c1ccc(-c2cnc3[nH]cc(C(=O)c4cccnc4)c3c2)c(C#N)c1` , thanks.
### Response 17.6

### Prompt Need microsomal CLint at 10 µM of `NC(=O)c1ccc(-n2cnc3ccc(N4CC(C(=O)Nc5ccccc5)C4)cc32)cc1` , thanks.
### Response 23.4

### Prompt Need microsomal CLint at 10 µM of `O=C(c1ccncc1)c1c[nH]c2ncc(-c3ccc(N4CCOCC4)c(O)c3)cc12` , thanks.
### Response 15

### Prompt Need microsomal CLint at 10 µM of `Cn1cc(-c2ccc(-n3cnc4ccc(N5CC(C(=O)N6CCOCC6)C5)c(F)c43)cc2)cn1` , thanks.
### Response 12.4

### Prompt Need microsomal CLint at 10 µM of `CN(C)c1ccc(-c2cnc3[nH]cc(C(=O)c4cccnc4)c3c2)cc1` , thanks.
### Response 23.6

### Prompt Need microsomal CLint at 10 µM of `O=C(C1CN(c2cc(F)c3ncn(-c4ccc(-c5cn[nH]c5)cc4)c3c2)C1)N1CCOCC1` , thanks.
### Response 23.4

### Prompt Need microsomal CLint at 10 µM of `COc1ccc(-c2cnc3[nH]cc(C(=O)c4cccnc4)c3c2)c(C#N)c1` , thanks.
### Response 6.8

### Prompt Need microsomal CLint at 10 µM of `COC1CN(C(=O)c2ccc3nccc(-c4ccc(-c5cn[nH]c5)cc4)c3c2)C1` , thanks.
### Response 16.2

### Prompt Need microsomal CLint at 10 µM of `COc1ccc(-c2cnc3[nH]cc(C(=O)c4ccncc4)c3c2)cc1` , thanks.
### Response 21.2

### Prompt Need microsomal CLint at 10 µM of `O=C(c1ccncc1)c1c[nH]c2ncc(-c3ccc(N4CCOCC4)cc3)cc12` , thanks.
### Response 20

### Prompt Need microsomal CLint at 10 µM of `CN(C)c1ccc(-c2cnc3[nH]cc(C(=O)c4cccnc4)c3c2)cc1O` , thanks.
### Response 26.6

### Prompt Need microsomal CLint at 10 µM of `CN1CCN(Cc2ccc(-c3ccnc4ccc(N5CCC(C)(C(N)=O)CC5)cc34)cc2)CC1` , thanks.
### Response 18.6

### Prompt Need microsomal CLint at 10 µM of `O=C(C1CN(c2ccc3ncn(-c4ccc(-c5cn[nH]c5)cc4)c3c2F)C1)N1CCOCC1` , thanks.
### Response 12.4

### Prompt Need microsomal CLint at 10 µM of `Cn1cc(-c2ccc(-n3cnc4ccc(C(=O)N5CCC5)cc43)cc2)cn1` , thanks.
### Response 14.6

### Prompt Need microsomal CLint at 10 µM of `CN1CCN(C(=O)c2cnc3cncc(-c4ccc(N(C)C)cc4)c3c2)CC1` , thanks.
### Response 18

### Prompt Need microsomal CLint at 10 µM of `CN(C)c1ccc(-c2cnc3[nH]cc(C(=O)c4ccncc4)c3c2)cc1` , thanks.
### Response 35

### Prompt Need microsomal CLint at 10 µM of `O=C(c1ccc2ncn(-c3ccc(-c4cn[nH]c4)cc3)c2c1)N1CCCCC1` , thanks.
### Response 24.8

### Prompt Need microsomal CLint at 10 µM of `COCCNC(=O)c1cnc2cncc(-c3ccc(-c4cnn(C)c4)cc3)c2c1` , thanks.
### Response 10.4

### Prompt Need microsomal CLint at 10 µM of `COc1cc(-c2cnc3[nH]cc(C(=O)c4ccccn4)c3c2)ccc1N1CCOCC1` , thanks.
### Response 12.8

### Prompt Need microsomal CLint at 10 µM of `N=C(c1ccnc2ccc(-c3ccc(-c4cn[nH]c4)cc3)cc12)N1CCCCC1` , thanks.
### Response 19

### Prompt Need microsomal CLint at 10 µM of `O=C(c1ccccn1)c1c[nH]c2ncc(-c3ccc(N4CCOCC4)c(O)c3)cc12` , thanks.
### Response 22

### Prompt Need microsomal CLint at 10 µM of `COc1cc(-c2cnc3[nH]cc(C(=O)c4cccnc4)c3c2)ccc1N(C)C` , thanks.
### Response 22.2

### Prompt Need microsomal CLint at 10 µM of `COc1cc(-c2cnc3[nH]cc(C(=O)c4cccnc4)c3c2)ccc1N1CCOCC1` , thanks.
### Response 7.2

### Prompt Need microsomal CLint at 10 µM of `COC1CN(C(=O)c2cnc3cncc(-c4ccc(-c5cnn(C)c5)cc4)c3c2)C1` , thanks.
### Response 15.2

### Prompt Need microsomal CLint at 10 µM of `COc1ccc(-n2cnc3ccc(N4CC(C(=O)N5CCOCC5)C4)cc32)cc1` , thanks.
### Response 3

### Prompt Need microsomal CLint at 10 µM of `O=C(C1CN(c2ccc3ncn(-c4ccc(-c5cn[nH]c5)cc4)c3c2)C1)N1CCOCC1` , thanks.
### Response 18.8

### Prompt Need microsomal CLint at 10 µM of `O=C(c1cccnc1)c1c[nH]c2ncc(-c3ccc(N4CCOCC4)c(O)c3)cc12` , thanks.
### Response 23.2

* * *

Give CC50 at 72 h for every item shown.
Assay Protocol: General cytotoxicity test on HepG2 cells
Assay type: cell-based
Assay Context: human, HepG2 cells; 72 h incubation; 200 to 0.78 µM; average values of several tests; read-out: Hep-G2 CC50, mkM

### Prompt Need CC50 at 72 h of `COc1ccc(-c2cnc3[nH]cc(C(=O)c4cccnc4)c3c2)c(C#N)c1` , thanks.
### Response > 200 µM

### Prompt Need CC50 at 72 h of `Cn1cc(-c2ccc(-n3cnc4ccc(N5CC(C(=O)N6CCOCC6)C5)c(F)c43)cc2)cn1` , thanks.
### Response > 200 µM

### Prompt Need CC50 at 72 h of `COc1cc(-c2cnc3[nH]cc(C(=O)c4cccnc4)c3c2)ccc1N(C)C` , thanks.
### Response 4.7 µM

### Prompt Need CC50 at 72 h of `COCCN(C)C(=O)c1cnc2c(N)ncc(-c3ccc(-c4cnn(C)c4)cc3)c2c1` , thanks.
### Response 20.7 µM

### Prompt Need CC50 at 72 h of `O=C(c1cccnc1)c1c[nH]c2ncc(-c3ccc(N4CCOCC4)cc3)cc12` , thanks.
### Response 118 µM

### Prompt Need CC50 at 72 h of `O=C(c1ccccn1)c1c[nH]c2ncc(-c3ccc(N4CCOCC4)c(O)c3)cc12` , thanks.
### Response > 200 µM

### Prompt Need CC50 at 72 h of `CCN(CC)C(=O)c1cnc2cncc(-c3ccc(-c4cnn(C)c4)cc3)c2c1` , thanks.
### Response > 100 µM

### Prompt Need CC50 at 72 h of `CN(C)c1ccc(-c2cnc3[nH]cc(C(=O)c4ccncc4)c3c2)cc1O` , thanks.
### Response > 200 µM

### Prompt Need CC50 at 72 h of `CN(C)C(=O)c1cnc2cncc(-c3ccc(-c4cnn(C)c4)cc3)c2c1` , thanks.
### Response > 100 µM

### Prompt Need CC50 at 72 h of `COC1CN(C(=O)c2cnc3cncc(-c4ccc(-c5cnn(C)c5)cc4)c3c2)C1` , thanks.
### Response > 100 µM

### Prompt Need CC50 at 72 h of `O=C(C1CN(c2ccc3ncn(-c4ccc(-c5cn[nH]c5)cc4)c3c2)C1)N1CCOCC1` , thanks.
### Response > 100 µM

### Prompt Need CC50 at 72 h of `COc1ccc(-c2cnc3[nH]cc(C(=O)c4ccncc4)c3c2)cc1` , thanks.
### Response > 100 µM

### Prompt Need CC50 at 72 h of `Cn1cc(-c2ccc(-c3cncc4ncc(C(=O)N5CCOCC5)cc34)cc2)cn1` , thanks.
### Response 100 µM

### Prompt Need CC50 at 72 h of `NC(=O)c1ccc(-n2cnc3ccc(N4CC(C(=O)Nc5ccccc5)C4)cc32)cc1` , thanks.
### Response > 100 µM

### Prompt Need CC50 at 72 h of `Cn1cc(-c2ccc(-c3ccc4nccc(C(=O)N5CCCCC5)c4c3)cc2)cn1` , thanks.
### Response > 50 µM

### Prompt Need CC50 at 72 h of `COc1cc(-c2cnc3[nH]cc(C(=O)c4ccccn4)c3c2)ccc1N1CCOCC1` , thanks.
### Response > 100 µM

### Prompt Need CC50 at 72 h of `COc1ccc(-n2cnc3ccc(N4CC(C(=O)N5CCOCC5)C4)cc32)cc1` , thanks.
### Response > 100 µM

### Prompt Need CC50 at 72 h of `COCCNC(=O)c1cnc2cncc(-c3ccc(-n4ccnc4)cc3)c2c1` , thanks.
### Response 200 µM
